Hey, just so you know, these numbers are from PubChem BioAssay (NCI).

I'd appreciate it if you could supply TGI values for the items below.
Test system: DU-145 prostate
Experiment: NCI tumour cell line growth inhibition, 48 h

Solved cases below.
compound: Cc1c(C(=O)NN)nnn1-c1ccnc2c(C(F)(F)F)cccc12
TGI: > 100 µM
//
compound: CCCNCc1cc(C)cc2c1nc(N1CCNCC1)n2Cc1cc(C)c(F)c(C)c1
TGI: 19.6 µM
//
compound: Cc1cccc(NC(Nc2cccc(C)c2)=C(C(Cl)=C(Cl)Cl)[N+](=O)[O-])c1
TGI: > 57.5 µM
//
compound: C=C1C(=O)O[C@H]2[C@H]1CC/C(COC(=O)c1cc3cc(OC)ccc3[nH]1)=C\CC[C@@]1(C)O[C@@H]21
TGI: 2.19 µM
//
compound: CC1OC(n2cc(F)c(=O)[nH]c2=O)C(O[Si](C)(C)C(C)(C)C)C1O[Si](C)(C)C(C)(C)C (stereo not given)
TGI: 26.8 µM
//
compound: COc1cc(/C=C/c2cc(=O)cc(/C=C/c3ccc(O)c(OC)c3)o2)ccc1O
TGI: > 100 µM

Batch lookup, TGI per entry.
1. O=C(O)c1cc2ccccc2c(S(=O)(=O)O)c1O
2. COC(=O)c1cc2c3c(cc(NCCN)c2[nH]1)N(C(=O)c1cc2cc(OC)c(OC)c(OC)c2[nH]1)CC3CCl (stereo not given)
3. COC(=O)C1=C(C)N2[C@H](C(=O)O)CS[C@@]2(C)[C@H](C(=O)OC)[C@H]1c1cccc([N+](=O)[O-])c1
4. O=C(Nc1cc(-c2ccccc2)[nH]n1)c1ccc(Cl)cc1

1: > 100 µM; 2: 0.0516 µM; 3: > 100 µM; 4: > 100 µM
